Provenance of the data: patent US10889573B2

Can you tell me pEC50 for the items I'm about to list?
target: C. elegans Slo-1a (Caenorhabditis elegans, UniProt Q95V25); details: pE50 (negative decadic logarithm of EC50), CHO cells expressing C. elegans Slo-1a, voltage sensitive dye
Sequence (Q95V25 whole entry): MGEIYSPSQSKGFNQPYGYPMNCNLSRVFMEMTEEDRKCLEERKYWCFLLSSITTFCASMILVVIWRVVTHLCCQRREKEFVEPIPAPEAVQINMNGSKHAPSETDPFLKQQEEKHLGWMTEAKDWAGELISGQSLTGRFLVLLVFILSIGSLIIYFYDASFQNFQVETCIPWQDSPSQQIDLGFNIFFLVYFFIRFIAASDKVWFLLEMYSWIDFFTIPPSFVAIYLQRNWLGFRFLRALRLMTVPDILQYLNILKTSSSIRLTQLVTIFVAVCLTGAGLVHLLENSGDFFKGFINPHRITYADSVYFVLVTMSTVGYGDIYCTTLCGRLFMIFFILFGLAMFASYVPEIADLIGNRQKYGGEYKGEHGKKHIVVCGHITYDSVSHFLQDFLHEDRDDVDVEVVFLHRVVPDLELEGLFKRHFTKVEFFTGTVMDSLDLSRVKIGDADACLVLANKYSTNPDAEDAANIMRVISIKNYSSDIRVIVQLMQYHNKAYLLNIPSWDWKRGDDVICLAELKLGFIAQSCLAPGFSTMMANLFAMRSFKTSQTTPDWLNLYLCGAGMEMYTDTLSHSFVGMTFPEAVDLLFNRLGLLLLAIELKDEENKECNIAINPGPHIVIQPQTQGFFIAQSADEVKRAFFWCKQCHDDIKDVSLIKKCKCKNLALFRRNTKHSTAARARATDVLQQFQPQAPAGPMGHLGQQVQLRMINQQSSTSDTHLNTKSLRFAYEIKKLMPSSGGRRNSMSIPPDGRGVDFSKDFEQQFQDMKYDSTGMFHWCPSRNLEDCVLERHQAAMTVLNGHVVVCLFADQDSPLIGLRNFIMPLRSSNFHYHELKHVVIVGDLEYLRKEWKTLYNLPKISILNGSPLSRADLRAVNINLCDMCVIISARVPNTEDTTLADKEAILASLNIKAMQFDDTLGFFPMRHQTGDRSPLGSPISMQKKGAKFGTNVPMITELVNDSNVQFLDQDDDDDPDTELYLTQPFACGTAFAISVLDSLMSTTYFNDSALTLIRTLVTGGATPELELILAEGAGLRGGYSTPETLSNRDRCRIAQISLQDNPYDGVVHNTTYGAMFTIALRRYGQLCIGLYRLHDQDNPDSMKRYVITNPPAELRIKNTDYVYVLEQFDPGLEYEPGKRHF
pEC50: −log10 of the molar value.

O=C(N[C@H]1CCOc2ccccc21)c1cnc2c(-c3cc(Cl)cc(Cl)c3)cccc2c1CCO [Example 593] :: 7.50 to 8.50
O=C(N[C@H]1CCOc2ccccc21)c1cnc2c(-c3cc(F)cc(F)c3F)cccc2c1C1COC1 [Example 660] :: > 8.50
COc1c(F)ccc(-c2cccc3c(N4CCOCC4)c(C(=O)N[C@H]4CCOc5ccccc54)cnc23)c1F [Example 53] :: > 8.50
O=C(N[C@H]1CCOc2ccccc21)c1cnc2c(-c3cc(Cl)ccc3F)cc(O)cc2c1N1CCOCC1 [Example 626] :: 7.50 to 8.50

In the following, a different compound is considered.
Q: Need pEC50 of CC(=O)N(C)Cc1c(C(=O)N[C@H]2CCOc3ccccc32)cnc2c(-c3cc(Cl)cc(Cl)c3)cccc12 [Example 631] , thanks.
Result: > 8.50
